Biological target: Fuc(a1-2)Gal(b1-3)[Fuc(a1-4)]GlcNAc
Test: glycan array binding signal (z-score within array); higher = stronger binding
Conditions: glycan notation: IUPAC condensed, linker removed
This is one part of a sample in which the strongest signals are shown more often than they occur.
measured-parameter: glycan array binding signal (z-score)

{"columns": ["binder", "measured-value"],
 "data": [
  ["HFR-1 (Triticum aestivum) (protein) MSPQSFTLETTTTTPAAKGSDPSYFQSAPACHEMIQHKELLLHLYAYQNVQKTPDANQAVIVESKRPECFGILAANDWTVYDGPAHNANLVAHAQGLHLGASMAKENWFICFNMVFVNQRFTGSSFKVMGDFQGTAHNGEWAIVGGTGEFAYAQGVIAFKKTQQSERNARMELHVRAMCLSFLRPLLSLGDGSAVAKIGPWGKMSGELLDIPSTPQRLERITIRHGVVIDSLAFSFIDKAGEPYNVGPWGGRRGDNKDTIELAPSEIVTEVSGTVGIFAEDNVEYNAIASLTITTNHRPYGPFGETQSTPFSVPVQDNNNIVGFFACAGKYVEALGVYVRSPVST", -0.201]
]}
